Origin of the recorded values: the NIST ThermoML archive (doi:10.1016/j.fluid.2007.10.004)

Settings: 383 K, Capillary rise
Measured surface tension liquid-gas of individual entries
Field format: number, assumed mN/m, no unit text.

I am curious: what surface tension liquid-gas value has been reported for CCCCCCn1cc[n+](C)c1.F[B-](F)(F)F [1-hexyl-3-methylimidazolium tetrafluoroborate] ?
34.9

Item under review: CCCCn1cc[n+](C)c1.F[B-](F)(F)F [1-butyl-3-methylimidazolium tetrafluoroborate] . Reported surface tension liquid-gas?
38.8

Please report the recorded surface tension liquid-gas for CCCCCCn1cc[n+](C)c1.[Cl-] [1-hexyl-3-methylimidazolium chloride] .
36.8

surface tension liquid-gas lookup needed for CCCCn1cc[n+](C)c1.[Cl-] [1-butyl-3-methylimidazolium chloride] , thanks.
42.5

Please turn your attention to the following entry.
Fill blank: measured surface tension liquid-gas of the molecule CCCCCCCC[n+]1ccn(C)c1.F[B-](F)(F)F [1-methyl-3-octylimidazolium tetrafluoroborate] is ____.
26.5

====

Catalogue of surface tension liquid-gas values
Settings: 313 K, Capillary rise
Numeric answer only, unit mN/m assumed.

# annotated cases, reported surface tension liquid-gas shown
Returns the measured surface tension liquid-gas for the input compound. Input: CCCCCCn1cc[n+](C)c1.F[P-](F)(F)(F)(F)F [1-hexyl-3-methylimidazolium hexafluorophosphate]
42.3

Record request: surface tension liquid-gas value, item CCCCCCn1cc[n+](C)c1.[I-] [1-hexyl-3-methylimidazolium iodide]
42.3

Report surface tension liquid-gas for CCCCn1cc[n+](C)c1.[I-] [1-butyl-3-methylimidazolium iodide] please.
52.1

Query (compound): CCCCCCCC[n+]1ccn(C)c1.[Cl-] [1-methyl-3-octylimidazolium chloride] ; field requested: surface tension liquid-gas
31.2

State the recorded surface tension liquid-gas for this entry: CCCCCCn1cc[n+](C)c1.F[B-](F)(F)F [1-hexyl-3-methylimidazolium tetrafluoroborate]
38.4

Others:
Find the recorded surface tension liquid-gas belonging to CCCCn1cc[n+](C)c1.F[P-](F)(F)(F)(F)F [1-butyl-3-methylimidazolium hexafluorophosphate] and report it.
46.5

====

Settings: 373 K, Capillary rise
Item-by-item account of surface tension liquid-gas
Express it in mN/m; write the number only.

Take a look at these entries with their results.
# query: surface tension liquid-gas of entry CCCCn1cc[n+](C)c1.F[P-](F)(F)(F)(F)F [1-butyl-3-methylimidazolium hexafluorophosphate]
42.1

Any idea what its surface tension liquid-gas is? The compound is CCCCn1cc[n+](C)c1.F[B-](F)(F)F [1-butyl-3-methylimidazolium tetrafluoroborate]
39.2

Endpoint output: surface tension liquid-gas of CCCCn1cc[n+](C)c1.[I-] [1-butyl-3-methylimidazolium iodide] . Value?
47.1

Fill in: surface tension liquid-gas of CCCCn1cc[n+](C)c1.[Cl-] [1-butyl-3-methylimidazolium chloride] is ___
43.2

Query (compound): CCCCCCCC[n+]1ccn(C)c1.[Cl-] [1-methyl-3-octylimidazolium chloride] ; field requested: surface tension liquid-gas
27.9

New cases:
Can you share its surface tension liquid-gas? I mean this compound: CCCCCCn1cc[n+](C)c1.[I-] [1-hexyl-3-methylimidazolium iodide]
37.9

Looking for the measured surface tension liquid-gas of CCCCCCn1cc[n+](C)c1.F[B-](F)(F)F [1-hexyl-3-methylimidazolium tetrafluoroborate] , can you help?
35.4

Quick one: surface tension liquid-gas for CCCCCCCC[n+]1ccn(C)c1.F[B-](F)(F)F [1-methyl-3-octylimidazolium tetrafluoroborate] ?
27

What value of surface tension liquid-gas has been reported for the following compound? CCCCCCn1cc[n+](C)c1.[Cl-] [1-hexyl-3-methylimidazolium chloride]
37.4
